These data points were gathered from PubChem BioAssay.

- Target Of Assay: E3 ubiquitin-protein ligase XIAP (Homo sapiens)
- Assay Explanation: XIAP binders, primary screen, biophysical, small-molecule microarray, fluorescence 635 nm (AID 1181);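 further: score merges 667 nm emission and signal to noise over triplicate slides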
- Condition Parameters: small-molecule microarray binding, higher = more signal
Group membership follows composite z-score per the scheme range 1 = under -0.2, range 2 = from -0.2 up to -0.07, range 3 = -0.07 and over

* [N-]=[N+]=NCc1ccccc1C[C@@]1(C(=O)NCc2ccccc2)N=C(c2ccc(OCCCO)cc2)O[C@@H]1c1ccccc1N=[N+]=[N-] | range 2
* CC(C)(C)OC(=O)CC[C@@]1(C(=O)NCc2ccccc2)N=C(c2ccc(OCCCO)cc2)O[C@@H]1c1ccccc1N=[N+]=[N-] | range 3
* COC(=O)[C@@]1(Cc2ccccc2)[C@@H]2C(=CC(=O)[C@H]2CC(=O)C(=O)N(C)C)CN1C(=O)c1ccccc1 | range 3
* CCC[C@@H]1C[C@@]1(CCC)[C@@H](NC(=O)OCc1ccccc1)c1ccc(-c2ccccc2)cc1 | range 3
* O=C1OCC=C[C@H]2OC34C=CCN(c5ccc(Cl)cc5)C(=O)[C@H]3N(CCO)C(=O)[C@@H]4[C@@H]12 (some centres undefined) | range 1
* CC(C)C[C@@H]1NC(=O)[C@@H]2C[C@H](C(=O)NCCCCN(C)C)[C@H](c3cccc(OCCO)c3)N2C1=O | range 2
* COc1ccc(CCN2C(=O)[C@@]3(Cc4ccccc42)c2ccccc2C(=O)N(Cc2ccccc2OC)[C@H]3c2ccc(CO)cc2)cc1 | range 2
* C=C(COC)/C(=C/C[C@H](OC(C)=O)c1ccc(OCCO)cc1)c1cc(C(=O)OC)ccc1OC | range 1
* C=CCOC(=O)[C@H]1[C@@H]2C(=O)O[C@@H](c3ccccc3)[C@@H](c3ccccc3)N2[C@@H](c2ccc(OCCOC(=O)[C@H]3C[C@H]4C(=O)N[C@@H](CCCCNC(C)=O)C(=O)N4[C@H]3c3ccc(O)cc3)cc2)[C@]12C(=O)Nc1ccccc12 | range 3
* COc1ccc(-c2nc(-c3ccccc3)c3c(c2C)CO[Si]3(C(C)C)C(C)C)cn1 | range 2
* COCCOC(=O)N1C(=O)[C@@]2(c3cc(C#CC4=CCCCC4)ccc31)[C@H](c1ccc(OCCO)cc1)N1[C@H](c3ccccc3)[C@H](c3ccccc3)OC(=O)[C@H]1[C@@H]2C(=O)NC[C@H](O)c1ccccc1 | range 2
* O=C1O[C@@H](c2ccccc2)[C@@H](c2ccccc2)N2[C@@H](c3ccc(O)cc3)[C@]3(C(=O)Nc4ccc(C#CC5(O)CCCCCC5)cc43)[C@@H](C(=O)NC[C@H](O)c3ccccc3)[C@H]12 | range 1
* COC(=O)C1=CC(CCCO)=CC(C2CC2)N(C)C=C1C(=O)OC (centres undefined) | range 3
